Target: FGFR1 (Homo sapiens)
Construct: purchased Upstate
Sequence (P11362 22-822, species assumed): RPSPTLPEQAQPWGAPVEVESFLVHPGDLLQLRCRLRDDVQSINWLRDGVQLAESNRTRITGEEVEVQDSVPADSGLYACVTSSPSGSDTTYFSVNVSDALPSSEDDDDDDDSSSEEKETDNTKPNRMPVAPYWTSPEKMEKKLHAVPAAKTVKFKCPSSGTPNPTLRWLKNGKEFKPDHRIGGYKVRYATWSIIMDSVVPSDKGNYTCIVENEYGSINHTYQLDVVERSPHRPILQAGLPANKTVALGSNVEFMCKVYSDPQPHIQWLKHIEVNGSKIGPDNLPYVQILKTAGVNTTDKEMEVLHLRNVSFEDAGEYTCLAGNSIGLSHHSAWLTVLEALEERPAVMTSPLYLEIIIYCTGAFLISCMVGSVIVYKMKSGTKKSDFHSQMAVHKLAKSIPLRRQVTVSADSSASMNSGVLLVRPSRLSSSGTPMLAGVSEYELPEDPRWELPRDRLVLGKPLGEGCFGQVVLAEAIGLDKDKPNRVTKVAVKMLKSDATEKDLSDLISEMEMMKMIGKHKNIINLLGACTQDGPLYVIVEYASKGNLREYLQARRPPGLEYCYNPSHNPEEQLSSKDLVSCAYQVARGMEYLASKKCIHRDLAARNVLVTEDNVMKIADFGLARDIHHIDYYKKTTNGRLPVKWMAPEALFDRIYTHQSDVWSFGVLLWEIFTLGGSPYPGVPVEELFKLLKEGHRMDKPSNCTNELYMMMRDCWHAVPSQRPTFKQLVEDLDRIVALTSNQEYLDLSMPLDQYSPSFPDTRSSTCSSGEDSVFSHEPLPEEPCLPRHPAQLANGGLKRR
Test: LabChip (Caliper) kinase assay, FGFR1
Format: biochemical
Conditions: compound at 100 nM, read-out: remaining kinase activity (in %) / percentage of inhibition
Experimental: The analysis of kinase activity described here was performed using LabChip (Caliper Life Sciences), specifically the Caliper LC3000 and the EZ Reader II instruments. The kinase assay used measures the conversion of a fluorescent peptide (substrate) to a phosphorylated product. The reaction mixture, in a microplate well, is introduced by a capillary in a chip where the non-phosphorylated substrate and the phosphorylated product are separated by fluorescence induced by laser. […]
readout kind: inhibition at 0.1 µM (%)
Quick note: give the figure in %, leave out the unit.

Some solved cases for reference:
C[C@H]1O[C@@H](n2c3ccccc3c3c4c(c5c6ccccc6[nH]c5c32)CNC4=O)C[C@@H](O)[C@@H]1O [formula (XV), N^13-1′-β-D-olivosyl-k252c] :: 7
C[C@@H]1O[C@@H](n2c3ccccc3c3c4c(c5c6ccccc6[nH]c5c32)C(=O)NC4=O)C[C@@H](O)[C@H]1O [formula (V), N^13-1′-β-L-digitoxosylarcyriaflavin] :: 34

q: # value lookup — system FGFR1 (Homo sapiens), readout inhibition at 0.1 µM, item C[C@@H]1O[C@@H](n2c3ccccc3c3c4c(c5c6ccccc6[nH]c5c32)C(=O)NC4=O)[C@H](O)[C@H](O)[C@H]1O [formula (III), N^13-1′-β-L-rhamnosylarcyriaflavin]
a: 4

Data provenance is patent US8598132B2.
